# target.or.system: human CYP11B1 (Homo sapiens (Human), UniProt P15538)
# Sequence (P15538 25-503): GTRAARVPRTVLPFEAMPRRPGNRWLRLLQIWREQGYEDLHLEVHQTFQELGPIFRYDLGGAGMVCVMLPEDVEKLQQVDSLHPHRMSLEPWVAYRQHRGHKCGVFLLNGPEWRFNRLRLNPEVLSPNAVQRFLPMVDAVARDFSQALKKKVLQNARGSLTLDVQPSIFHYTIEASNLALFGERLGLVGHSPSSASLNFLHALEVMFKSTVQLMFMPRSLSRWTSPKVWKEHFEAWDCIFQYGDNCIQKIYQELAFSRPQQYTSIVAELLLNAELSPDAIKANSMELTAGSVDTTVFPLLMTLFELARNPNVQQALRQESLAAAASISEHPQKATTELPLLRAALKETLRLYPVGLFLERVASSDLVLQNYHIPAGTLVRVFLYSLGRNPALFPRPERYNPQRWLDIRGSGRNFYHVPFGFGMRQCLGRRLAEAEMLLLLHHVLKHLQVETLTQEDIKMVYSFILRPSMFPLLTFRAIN
# assay.name: G-402 cellular enzyme assay, human CYP11B1 (cortisol release, HTRF)
# condition.label: G-402 cells expressing human CYP11B1; 1 μM Deoxycortisol
endpoint.name: EC50 (µM)

compound=CN1C(=O)CCc2cc(-c3cncc4c3CCC[C@H]4NC(=O)C3CC3)ccc21 target_or_system="human CYP11B1 (Homo sapiens (Human), UniProt P15538)" endpoint_name=EC50 result_value=2.36
compound="CCC(=O)NC1CCCc2c(-c3ccc4c(c3)CCC(=O)N4C)cncc21 (single isomer, unassigned; (+)) [Example 3]" target_or_system="human CYP11B1 (Homo sapiens (Human), UniProt P15538)" endpoint_name=EC50 result_value=0.98
compound=CN1C(=O)CCc2cc(-c3cncc4c3CCC[C@H]4NS(=O)(=O)C3CC3)ccc21 target_or_system="human CYP11B1 (Homo sapiens (Human), UniProt P15538)" endpoint_name=EC50 result_value=0.319
compound="CCS(=O)(=O)NC1CCCc2c(-c3ccc4c(c3)CCC(=O)N4C)cncc21 (single isomer, unassigned; (-)) [Example 5]" target_or_system="human CYP11B1 (Homo sapiens (Human), UniProt P15538)" endpoint_name=EC50 result_value=11.8
compound="C[C@H](O)C(=O)NC1CCCc2c(-c3ccc4c(c3)CCC(=O)N4C)cncc21 (single isomer, unassigned; (+)) [Example 21]" target_or_system="human CYP11B1 (Homo sapiens (Human), UniProt P15538)" endpoint_name=EC50 result_value=0.598
compound="CN1C(=O)CCc2cc(-c3cncc4c3CCCC4O)ccc21 (racemic) [Example 67]" target_or_system="human CYP11B1 (Homo sapiens (Human), UniProt P15538)" endpoint_name=EC50 result_value=0.206
compound="CCC(=O)NC1CCc2c(-c3cc(Cl)c4c(c3)CCC(=O)N4C)cncc21 (single isomer, unassigned; (+)) [Example 60]" target_or_system="human CYP11B1 (Homo sapiens (Human), UniProt P15538)" endpoint_name=EC50 result_value=1.17
